test: in vitro; conditions: human, CC50, uninfected A549 cells, CellTiter-Glo
Below, each of the compounds is paired with its reported CC50 value.

{"Compound": "O=C1c2c(O)c(=O)ccn2N2CN1C/C=C\\CCc1ccccc1[C@H]2c1ccccc1 (single isomer, unassigned) [Compound 21A]", "CC50": "> 1000 nM"}
{"Compound": "O=C1c2c(O)c(=O)ccn2N2CN1CCOCCOc1ccccc1[C@@H]2c1ccccc1 (single isomer, unassigned) [Compound 99B]", "CC50": "> 1000 nM"}
{"Compound": "O=C1c2c(O)c(=O)ccn2N2CN1CC/C=C/COc1c(ccc(Cl)c1Cl)[C@@H]2c1ccccc1 (single isomer, unassigned) [Compound 111A]", "CC50": "> 200 nM"}

====

assay: in vitro; details: human, CC50, uninfected A549 cells, CellTiter-Glo

{"Compound": "O=C1c2c(O)c(=O)ccn2N2CN1C/C=C\\COc1c(ccc(F)c1F)[C@H]2c1ccccc1 (single isomer, unassigned) [Compound 74A]", "CC50": "> 2000 nM"}
{"Compound": "O=C1c2c(O)c(=O)ccn2N2CN1C/C=C\\COc1cccnc1[C@@H]2c1ccccc1 (single isomer, unassigned) [Compound 27B]", "CC50": "> 20000 nM"}
{"Compound": "O=C1c2c(O)c(=O)ccn2N2CN1C/C=C\\COc1ccc(F)cc1[C@H]2c1cccc(F)c1 (single isomer, unassigned) [Compound 25A]", "CC50": "> 2000 nM"}
{"Compound": "Cc1ccc2c(c1F)OC/C=C\\CN1CN([C@H]2c2ccccc2)n2ccc(=O)c(O)c2C1=O (single isomer, unassigned) [Compound 135B]", "CC50": "> 200 nM"}
{"Compound": "O=C1c2c(O)c(=O)ccn2N2CN1C/C=C\\COc1c(Cl)cccc1[C@@H]2c1ccccc1 (single isomer, unassigned) [Compound 75B]", "CC50": "> 200 nM"}
{"Compound": "O=C1c2c(O)c(=O)ccn2N2CN1C/C=C\\COc1ccccc1[C@@H]2c1cccnc1 (single isomer, unassigned) [Compound 26B]", "CC50": "> 4000 nM"}

====

experiment: in vitro; details: human, CC50, uninfected A549 cells, CellTiter-Glo
Below, each of the compounds is paired with its reported CC50 value.

{"Compound": "O=C1c2c(O)c(=O)ccn2N2CN1C[C@H]1C[C@@H]1COc1ccccc1[C@H]2c1ccccc1 (single isomer, unassigned) [Compound 80BA]", "CC50": "> 1000 nM"}
{"Compound": "O=C1c2c(O)c(=O)ccn2N2CN1C/C=C\\COc1c(F)cccc1[C@@H]2c1ccccc1 (single isomer, unassigned) [Compound 61B]", "CC50": "> 2000 nM"}
{"Compound": "CC[C@@H]1C/C=C/COc2c(F)cccc2[C@H](c2ccccc2)N2CN1C(=O)c1c(O)c(=O)ccn12 (single isomer, unassigned) [Compound 105BB]", "CC50": "> 200 nM"}
{"Compound": "O=C1c2c(O)c(=O)ccn2N2CN1[C@H](C1CC1)/C=C/COc1c(ccc(F)c1F)[C@@H]2c1ccccc1 (single isomer, unassigned) [Compound 152AB]", "CC50": "> 100 nM"}
{"Compound": "O=C1c2c(O)c(=O)ccn2N2CN1CC/C=C/CCOc1ccccc1[C@H]2c1ccccc1 (single isomer, unassigned) [Compound 65A]", "CC50": "> 10000 nM"}
{"Compound": "CC(C)[C@H]1/C=C/COc2c(ccc(F)c2F)[C@H](c2ccccc2)N2CN1C(=O)c1c(O)c(=O)ccn12 (single isomer, unassigned) [Compound 128BB]", "CC50": "> 200 nM"}
